targetEntity: Muscarinic acetylcholine receptor M4 (Mus musculus)
protocolDescription: allosteric agonists of mouse M4 receptor, confirmation, cell-based (AID 643)
conditionParameters: HEK293 cells expressing M4, thallium flux fluorescence, 2 min; hits give high values
Label condition not met if response slope falls below 0.006; label condition met in every other case.

Take a look at these entries with their results.
compound	targetEntity	cat
CCOc1ccccc1OCCCCN1CCCC1	Muscarinic acetylcholine receptor M4 (Mus musculus)	condition not met
Cc1ccccc1-n1nc(C)c2cc(C(=O)NCc3cccnc3)sc21	Muscarinic acetylcholine receptor M4 (Mus musculus)	condition met
Cc1cccc2sc(NC(=O)Cn3cccc3)nc12	Muscarinic acetylcholine receptor M4 (Mus musculus)	condition met
C/C(CC1(O)C(=O)N(Cc2ccccc2)c2ccccc21)=N\O (stereo unspecified)	Muscarinic acetylcholine receptor M4 (Mus musculus)	condition met

**Query** For this compound, is measured response slope 0.006 or higher? Cc1ccc(S(=O)(=O)/C(C#N)=C/c2c(N3CCN(C)CC3)nc3c(C)cccn3c2=O)cc1
**Result** condition not met

* * *

targetEntity: Muscarinic acetylcholine receptor M4 (Mus musculus)
protocolDescription: allosteric agonists of mouse M4 receptor, confirmation, cell-based (AID 643)
conditionParameters: HEK293 cells expressing M4, thallium flux fluorescence, 2 min; hits give high values
Note to self: values exactly at 0.009 are met. So response slope at or above 0.009 is met, below is not met.

molecule	cat
CCCCCCc1cc2cc(-c3nnc(-c4ccccc4O)o3)c(=O)oc2cc1O	met
O=c1oc2c3c4c(cc2c(C(F)(F)F)c1CCN1CCOCC1)CCCN4CCC3	met
Fc1cccc2sc(Nc3nnc(-c4ccco4)o3)nc12	met
CC(=O)OC(C)C[N+](C)(C)C (centres undefined)	not met
CCCCN(CCCC)c1nc2ccccc2nc1C(C#N)C(=O)NCCCOC (centres undefined)	not met

**Query** Confirm if response slope reported for the molecule C[C@H]1OC[C@@H](C[N+](C)(C)C)O1 is 0.009 or above.
**Result** met

**Query** Now the same for CN(C)C(CNC(=O)Nc1cccc(Cl)c1)c1cccnc1 (centres undefined)
**Result** not met

**Query** Subsequent entry: O=C(Nc1nc(=O)c2ccccc2s1)c1ccccc1
**Result** met

**Query** Same question for COc1ccc(-c2noc(CSc3nc4ccccc4c(=O)n3-c3ccccc3)n2)cc1OC please.
**Result** not met

**Query** Item: CCn1c(SC(C)C(=O)O)nc2sc3c(c2c1=O)CCC3 (centres undefined)
**Result** met

* * *

targetEntity: Muscarinic acetylcholine receptor M4 (Mus musculus) (UniProt P32211)
Sequence (P32211 whole entry, looked up): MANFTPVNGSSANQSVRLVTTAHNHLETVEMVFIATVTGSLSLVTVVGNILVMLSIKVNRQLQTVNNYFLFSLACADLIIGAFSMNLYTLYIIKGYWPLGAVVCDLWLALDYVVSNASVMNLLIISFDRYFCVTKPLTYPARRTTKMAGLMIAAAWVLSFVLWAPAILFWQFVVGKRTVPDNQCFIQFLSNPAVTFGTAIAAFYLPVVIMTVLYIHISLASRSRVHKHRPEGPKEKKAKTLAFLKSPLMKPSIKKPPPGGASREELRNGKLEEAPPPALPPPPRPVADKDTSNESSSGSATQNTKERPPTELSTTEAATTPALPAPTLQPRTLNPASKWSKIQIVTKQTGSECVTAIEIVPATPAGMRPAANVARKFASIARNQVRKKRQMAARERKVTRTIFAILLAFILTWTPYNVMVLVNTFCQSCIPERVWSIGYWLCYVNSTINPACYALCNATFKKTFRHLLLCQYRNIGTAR
protocolDescription: allosteric agonists of mouse M4 receptor, confirmation, cell-based (AID 643)
conditionParameters: HEK293 cells expressing M4, thallium flux fluorescence, 2 min; hits give high values
Recorded response slope determines the label; the label ranges are range 1 (below 0.005), range 2 (0.005 to below 0.009), range 3 (0.009 or more)

**Query** Determine which band this compound sits in: Cc1ccc(CNC(=O)c2cc3c(=O)n4ccccc4nc3n(CC3CCCO3)c2=N)cc1 (centres undefined)
**Result** range 1

* * *

targetEntity: Muscarinic acetylcholine receptor M4 (Mus musculus)
protocolDescription: allosteric agonists of mouse M4 receptor, confirmation, cell-based (AID 643)
conditionParameters: HEK293 cells expressing M4, thallium flux fluorescence, 2 min; hits give high values
Entries are grouped by response slope into these classes: lower bin: < 0.005; middle bin: ≥ 0.005 and < 0.009; upper bin: ≥ 0.009

The following compounds have reported results that may help.
compound	cat
COc1ccc(CCn2c(=N)c(C(=O)NCc3ccco3)cc3c(=O)n4ccccc4nc32)cc1	lower bin
CC(=O)c1c(C)c2c(n1CCN(C)C)CCCC2	middle bin
CCOc1ccc(-n2c(O)c(C=Nc3ccc(N(CC)CC)cc3)c(=O)[nH]c2=O)cc1	lower bin
Clc1ccccc1OCCCCn1ccnc1	lower bin
CCOC(=O)CC(=O)CSc1nc(-c2cccnc2)ccc1C#N	lower bin
Cc1ccc(SCc2c(C#N)c3ccccc3n2C)cc1	middle bin
CCOC(=O)C1=C[C@]2(CC)CCCN3CCc4c(n1c1ccccc41)[C@@H]32	middle bin
COc1cc(/C=C/C(=O)CC(=O)/C=C/c2ccc(O)c(OC)c2)ccc1O	upper bin

**Query** Hey, which category is Cc1ccc(Cl)cc1N1CCN(C(=O)CN2C(=O)c3cccc4cccc2c34)CC1 in, do you know?
**Result** middle bin

**Query** Entry to check: CCN(CC)C(=O)c1sc2nc(-c3cccs3)cc(-c3cccs3)c2c1N
**Result** lower bin

**Query** One more compound: COc1cc(OC)cc(-c2nnc(Nc3nc4c(F)cccc4s3)o2)c1
**Result** upper bin

**Query** Now give it for CCc1cccc(NC(=O)Cn2cc3c(n2)CCCC3)c1 too.
**Result** middle bin

**Query** What about this compound? CN(C)c1ccc(/C=C/C(O)=C2/C(=O)N(C)C3(C)CC2c2ccccc2O3)cc1 (stereo not drawn)
**Result** lower bin

**Query** Another compound: O=c1c2ccccc2nc(-c2cccc(Cl)c2)n1O
**Result** middle bin

**Query** Now consider CCOC(=O)c1cnn2c1[nH]c(=O)c1ccccc12 .
**Result** middle bin

**Query** Input S=c1nc(C2CC2)[nH]c2ccccc12
**Result** lower bin

**Query** Could you do the same for Cc1ccc(-c2nn(-c3ccccc3)cc2/C=C(\C#N)c2cccc(C#N)c2)o1 , please?
**Result** upper bin

**Query** Also need Cc1c(C#N)sc2nc(-c3ccccc3)nc(N3CCCC3)c12 , thanks.
**Result** upper bin

**Query** Follow-up entry: CCN(CC)c1ccc2cc(-c3nc4ccccc4[nH]3)c(=O)oc2c1
**Result** upper bin

**Query** Moving on to Cc1nn(-c2ccc(Cl)cc2)c2sc(C(=O)N3CCN(c4ccccn4)CC3)cc12
**Result** lower bin

**Query** Then CCOC(=O)c1cc(-c2nnc(-c3ccc(Oc4ccccc4)cc3)o2)c(C)nc1C ?
**Result** upper bin

**Query** Try this compound too: Cc1csc(NC(=O)c2sc3nc(-c4cccs4)ccc3c2N)n1
**Result** lower bin

**Query** And Cc1c2ccncc2c(C)c2c1[nH]c1ccccc12 ?
**Result** upper bin

**Query** Try this compound too: O=C(Nc1nc(-c2ccc(S(=O)(=O)N3CCCCCC3)cc2)cs1)c1cccs1
**Result** upper bin
